Values were extracted from patent US20220098305A1.

Below is a list of entries, each paired with its recorded pEC50 value.
# Test target: T1, human ICOS (human, UniProt Q9Y6W8 21-199)
# T1 construct: The cell that carries it is named under assay; also called huICOS; CD278
# T1 sequence: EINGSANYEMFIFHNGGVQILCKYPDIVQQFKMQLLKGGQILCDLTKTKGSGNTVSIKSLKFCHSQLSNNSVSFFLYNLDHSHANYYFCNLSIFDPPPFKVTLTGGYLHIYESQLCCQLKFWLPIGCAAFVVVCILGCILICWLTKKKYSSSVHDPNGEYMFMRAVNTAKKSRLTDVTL
# Assay procedure: flow cytometry, CHO cells expressing human ICOS
By convention, pEC50 is the negative base-10 log of a molar concentration.

Molecule 8 (rbIgG of 1167) (antibody, V domains shown, Rabbit IgG format, from transgenic rabbit; also called ICOS (1167); clone 1167) VH: EVRLLESGGGLVQPGGSLRLSCAASGFTFNTYAVHWVRQAPGKGLEWVSGIGGSGVRTYYADSVKGRLTISRDNSKNTLYLQMNSLRAEDTAIYFCAKDIYVADFTGYAFDIWGQGTMVTVSS VL: DIQMTQSPSSVSASVGDRVTITCRASQGINNFLAWYQQKPGKAPKLLIYDASSLQSGVPSRFAGSGSGTDFTLTISSLQPEDFATYYCQQYNFYPLTFGGGTMVEIKR = 12.16
Molecule 20 (rbIgG of 1143) (antibody, V domains shown, Rabbit IgG format; also called ICOS (1143); clone 1143) VH: QSLEESGGDLVKPGASLTLTCKASGFDFSSAYDMCWVRQAPGKGLEWIGCVYYGDGITYYATWAKGRFTISKTSSTTVPLQMTSLTAADTATYFCARGAFLGSSYYLSLWGQGTLVTVSS VL: AIDMTQTPASVEAAVGGTVTINCQASENIYNWLAWYQQKPGQPPKLLIYDASKLASGVPSRFSASGSGTQFTLTISAVECADAATYYCQQAYTYGNIDNAFGGGTEVVVSG = 12.52
Molecule 14 (muIgG of 009) (antibody, V domains shown, Mouse IgG purified from hybridoma; also called ICOS (009); clone 009) VH: EVRLDETGGGVVQPGRPMELSCVASGFTFSDYWMNWVRQSPEKGLEWVAQIRNKPYNYETYYSDSVKGRFTISRDDSKSRVYLQMNNLRAEDMGIYYCTWPRLRSSDWHFDVWGAGTTVTVSS VL: AIQMTQSPSSLSASLGGEVTITCKASQDINKNIAWYQHKPGRGPRLLIWYTSTLQTGIPSRFSGSGSGRDYSFTISNLEPEDFATYYCLQFDNLYTFGSGTKLEIR = 11.53

Consider now this further binder.
Ask | Value lookup for pEC50; key = Molecule 18 (rbIgG of 1138) (antibody, V domains shown, Rabbit IgG format; also called ICOS (1138); clone 1138) VH: QSLEESGGDLVKPGASLTLTCTASGFDLSSYYYMCWVRQAPGKGLEWIACIYADIYGGTTHYASWAKGRFTISKTSSTTVTLQMTSLTAADTATYFCAREDGSRYGGSGYYNLWGPGTLVTVSS VL: ALVMTQTPSSVSAAVGGTVTINCQASQNIYSNLAWYQQKPGQPPKLLIYAASYLTSGVSSRFKGSGAGTQFTLTISGVECADAATYYCQQGHTTDNIDNAFGGGTEVVVKG
Reply | 11.72
